Tested on: SW480
Assay summary: Cell growth inhibition assay (Cell Titer Glo, 3 days)
Type: cell-based
Conditions used: Homo sapiens; SW480, colon; BRAF WT, KRAS G12C, PIK3CA WT; mean ± std; read-out: IC50 Single Agent
Parameter measured: pIC50
Please note pIC50 is a logarithmic value: minus log10 of concentration in mol/L. Answer with that number alone.

Observed pIC50 on SW480 for Cn1ncc(Cl)c1-c1cc(C(=O)N[C@H](CN)Cc2ccc(F)c(F)c2)oc1Cl , please.
5.25

// data source = patent US9402846B2
